Catalogue of growth readings, one per entry.
- System: SK-MEL-28 melanoma
- Assay notes: NCI-60 one-dose screen, 48 h (100 = growth as untreated, 0 = no growth, -100 = all killed)
- Condition: 10 µM unless noted
- Protocol: Growth inhibition of the SK-MEL-28 human tumor cell line is measured as a screen for anti-cancer activity. Cells are grown in 96 well plates and exposed to the test compound for 48 hours. Compounds are tested at a single concentration, which is 10^-5 M for most compounds. The reported endpoint is percent growth (GI% or GIPRCNT), where numbers from 0 - 100% represent growth inhibition, and numbers from -100% - 0 represent cell death. For example, a value of 40 represents 60% growth inhibition. […]
The panel holds about 83,000 compounds, 20% with a hit somewhere; the sample as a whole holds those more often.
Kindly provide the numeric value in % only, without the unit symbol.

These solved cases illustrate the format of a correct answer.
INSERT INTO assay_data (compound, recorded_metric, unit_text, number) VALUES
  ('CCCC(=O)NC(c1ccc2c(c1)OCO2)c1ccc2cccnc2c1O (stereo unspecified)', 'growth', '%', 34.5),
  ('Cc1ccc(Cc2cnc(NC(=O)c3cc(Br)cs3)s2)cc1', 'growth', '%', 61.7),
  ('CC(=O)OCc1nc(C#N)c(N(C)C)o1', 'growth', '%', 109),
  ('COc1ccc(C(=O)Nc2cccc(C3CC(=O)c4c(cc(OC)c(OC)c4OC)O3)c2)cc1 (stereo unspecified)', 'growth', '%', 56.3),
  ('Cc1c(-n2nnc(-c3nc4ccccc4s3)c2N)c(=O)n(-c2ccccc2)n1C', 'growth', '%', 111);

Here's the next entry for you.
Request: Endpoint output: growth of O=C(NNc1nccc(Nc2ccc(S(=O)(=O)Nc3ccncc3)cc2)n1)c1ccccc1 . Value?
Response: 106
